biological target: Aurora kinase A (Homo sapiens) (UniProt O14965); conditions: Compound concentration 20.0 uM
Sequence (O14965 whole entry): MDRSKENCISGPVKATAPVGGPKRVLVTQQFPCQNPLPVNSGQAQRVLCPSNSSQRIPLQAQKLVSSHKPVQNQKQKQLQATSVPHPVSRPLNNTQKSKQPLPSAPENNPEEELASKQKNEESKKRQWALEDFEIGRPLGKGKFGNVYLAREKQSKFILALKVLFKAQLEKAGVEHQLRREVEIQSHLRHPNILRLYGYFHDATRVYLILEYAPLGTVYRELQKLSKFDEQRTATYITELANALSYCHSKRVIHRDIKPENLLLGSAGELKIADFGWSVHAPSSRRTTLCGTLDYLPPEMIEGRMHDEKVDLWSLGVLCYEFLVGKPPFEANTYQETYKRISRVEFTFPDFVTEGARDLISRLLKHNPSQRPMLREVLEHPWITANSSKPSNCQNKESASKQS
Description: Thermal Shift Assay. Domain: start/stop: E122-S403
Residues, ends and D or L forms follow the SMILES beside them. *: point of attachment. Cbz = O=C(OCc1ccccc1)*; CH2F = FC*
measured.parameter: ΔTm (°C)
Give the quantity in °C, number only.

Reported ΔTm ( COc1ccc2nc3[nH]nc(C)c3c(NCCOCCO)c2c1 ) = 0.31

Reported ΔTm ( NC(=O)[C@H]1CCCCc2c1[nH]c1ccc(Cl)cc21 ) = 1.7

Reported ΔTm ( COc1cc2c(cc1-c1c(C)noc1C)[nH]c1nc(C)nc(-c3ccnc4ccccc34)c12 ) = -2.62

Reported ΔTm ( CCOCC1(COCC)CCC(c2n[nH]cc2CN(C)CCNC)CC1 ) = -0.08

Reported ΔTm ( CCOc1ccc(Cc2cc([C@]34OC[C@](CO)(O3)[C@@H](O)[C@H](O)[C@H]4O)ccc2Cl)cc1 ) = -0.99

Reported ΔTm ( CC(=O)N[C@@H](CC(C)C)C(=O)N[C@@H](CCC(=O)O)C(=O)N[C@@H](Cc1cnc[nH]1)C(=O)N[C@H](C=O)CC(=O)O (Ac-LEHD-aldehyde) ) = -1.34

Reported ΔTm ( COC(=O)CC[C@H](NC(=O)[C@H](Cc1c[nH]c2ccccc12)NC(=O)OCc1ccccc1)C(=O)N[C@@H](Cc1cnc[nH]1)C(=O)N[C@@H](CC(=O)OC)C(=O)CF (Cbz-WE(OMe)HD(OMe)-CH2F) ) = -0.45

Reported ΔTm ( Cn1c(NCCN(CCO)CCCc2ccc([N+](=O)[O-])cc2)cc(=O)n(C)c1=O ) = -1.33

Reported ΔTm ( CC(=O)N[C@@H](CC(=O)O)C(=O)N[C@@H](CCC(=O)O)C(=O)N[C@H](C(=O)N[C@@H](CC(=O)O)C(=O)CCl)C(C)C ) = -1.91

Reported ΔTm ( CC(C)(C)c1ccc(CN(C(=O)CN(Cc2c(F)c(F)c(F)c(F)c2F)S(=O)(=O)c2ccc(F)cc2)c2ccc(C(=O)NO)cc2)cc1 ) = 9.93

Reported ΔTm ( Nc1nc(NC2CC2)cc(-c2cccc(Cl)c2Cl)n1 ) = -1.81

Reported ΔTm ( COC(=O)[C@@H]1CC2=CC(=O)CC[C@]2(C)[C@@]23O[C@@H]2C[C@@]2(C)[C@@H](CC[C@@]24CCC(=O)O4)[C@H]13 ) = -0.81

Reported ΔTm ( C/C=C1\NC(=O)[C@H]2CSSCC/C=C/[C@H](CC(=O)N[C@H](C(C)C)C(=O)N2)OC(=O)[C@H](C(C)C)NC1=O ) = -0.48

Reported ΔTm ( CC(C)[C@@H]1NC(=O)[C@H](Cc2ccc(O)cc2)NC(=O)[C@@H](CC(=O)O)NC(=O)S[C@@H](C(=O)O)NC(=O)[C@H]([C@H](C)O)NC(=O)[C@H](Cc2ccc(O)cc2)NC(=O)[C@H](Cc2c[nH]c3ccccc23)NC(=O)[C@H](CCCNC(=N)N)NC(=O)[C@H](Cc2c[nH]c3ccccc23)NC(=O)[C@H](C)NC(=O)[C@H](CO)NC(=O)[C@H](CCCNC(=N)N)NC(=O)[C@H]([C@H](C)O)NC(=O)[C@H](CC(N)=O)NC(=O)[C@H](Cc2ccc(O)cc2)NC1=O ) = -2.45

Reported ΔTm ( NC(=O)C1CCCc2c1[nH]c1ccc(Cl)cc21 (stereo not given) ) = -0.98
